# assay_target: 2-heptyl-4(1H)-quinolone synthase PqsD (Pseudomonas aeruginosa)
# Sequence (A0A0C7ACN7 whole entry): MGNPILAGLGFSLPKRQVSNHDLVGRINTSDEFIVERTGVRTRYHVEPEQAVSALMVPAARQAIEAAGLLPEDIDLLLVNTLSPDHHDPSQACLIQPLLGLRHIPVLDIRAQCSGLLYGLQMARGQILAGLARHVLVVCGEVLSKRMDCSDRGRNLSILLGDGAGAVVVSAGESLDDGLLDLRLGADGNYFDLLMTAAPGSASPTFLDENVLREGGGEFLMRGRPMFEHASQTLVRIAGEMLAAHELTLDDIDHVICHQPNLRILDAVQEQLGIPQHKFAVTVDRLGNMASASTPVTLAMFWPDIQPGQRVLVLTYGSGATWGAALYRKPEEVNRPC
# test_method_notes: Inhibition of recombinant His6-tagged Pseudomonas aeruginosa PqsD expressed in Escherichia coli BL21 (deltaDE3) using anthraniloyl-CoA/beta-ketodecanoic acid as substrate assessed as HHQ formation preincubated for 10 mins followed by substrate addition by HPLC/MS-MS analysis
pIC50: −log10 of the molar value.
result_type: pIC50

The examples below pair each entry with its known result.
O=C(Nc1cc(-c2ccc(-c3ccc(CO)cc3)cc2)sc1C(=O)O)N[C@@H](Cc1ccccc1)C(=O)O : 6.85
COc1ccc(-c2cc(NC(=O)N[C@@H](Cc3ccccc3)C(=O)SCCNC(C)=O)c(C(=O)O)s2)cc1 : 4.49
O=[N+]([O-])c1ccccc1CO : 5.70
COc1ccc(-c2cc(NC(=O)N[C@@H](Cc3ccc(Cl)cc3)C(=O)O)c(C(=O)O)s2)cc1 : 4.86
O=C(Nc1cc(-c2ccccc2)sc1C(=O)O)N[C@@H](Cc1ccccc1)C(=O)O : 5.42

[a] COc1ccc(-c2cc(NC(=O)N[C@@H](Cc3c[nH]c4ccccc34)C(=O)O)c(C(=O)O)s2)cc1
[b] COc1ccc(-c2cc(NC(=O)N[C@@H](Cc3ccccc3)C(=O)O)cs2)cc1
IN: Sorting by pIC50 in descending order, would a or b appear first? Respond with the label that goes with your answer.
OUT: a

[A] COc1ccc(-c2cc(NC(=O)NCP(=O)(O)O)c(C(=O)O)s2)cc1
[B] COc1ccc(-c2cc(NC(=O)N[C@H](C(=O)O)C(C)C)c(C(=O)O)s2)cc1
IN: Sorting by pIC50 in descending order, would A or B appear first? Respond with the label that goes with your answer.
OUT: A

[a] O=C(Nc1cc(-c2cccc(-c3ccccc3)c2)sc1C(=O)O)N[C@@H](Cc1ccccc1)C(=O)O
[b] COc1ccc(-c2cc(NC(=O)N[C@@H](Cc3ccc(O)cc3)C(=O)O)c(C(=O)O)s2)cc1
IN: Returns the identifier with the smallest measured pIC50 among a and b . Respond with the label that goes with your answer.
OUT: b

[P] COc1ccc(-c2cc(NC(=O)NCC(=O)O)c(C(=O)O)s2)cc1
[Q] COc1ccc(-c2cc(NC(=O)N[C@@H](CCc3ccccc3)C(=O)O)c(C(=O)O)s2)cc1
IN: Sorting by pIC50 in descending order, would P or Q appear first? Respond with the label that goes with your answer.
OUT: P
